tested on: U2OS; experiment: Multiplex assay against U2OS; format: toxicity, cell-based; conditions: human, 48 h, 10 µM, compound concentration 10 uM, replicate 2
Non-standard residues stand in square brackets, D forms with d. Residues, ends and D or L forms follow the SMILES beside them.
measured property: Population Fragmented Nuclei (%)

Provide one value: measured Population Fragmented Nuclei (%) of COc1cc2nc(N3CCN(C(=O)c4ccco4)CC3)nc(N)c2cc1OC.Cl [PRAZOSIN HYDROCHLORIDE]
15%

Provide one value: measured Population Fragmented Nuclei (%) of `OCCCNc1cc(-c2ccnc(Nc3cccc(Cl)c3)n2)ccn1`
50%

Provide one value: measured Population Fragmented Nuclei (%) of `COc1ccc2c(c1OCc1ccccc1)C[C@@H](C(=O)O)N(C(=O)C(c1ccccc1)c1ccccc1)C2`
18%

Provide one value: measured Population Fragmented Nuclei (%) of `COC(c1ccccc1)(c1ccccc1)[C@H](Oc1nc(C)cc(C)n1)C(=O)O`
13%

Provide one value: measured Population Fragmented Nuclei (%) of CC(C)C[C@@H]1NC(=O)[C@@H](C(C)C)NC(=O)[C@@H]2CCCN2C(=O)[C@@H](CC(=O)O)NC(=O)[C@@H](Cc2c[nH]c3ccccc23)NC1=O [BQ-123] (cyclo(L[dW][dD]P[dV]))
20%

Provide one value: measured Population Fragmented Nuclei (%) of `COc1cc2nc(N3CCN(C(=O)COc4c(OC)cccc4C(C)C)CC3)nc(N)c2cc1OC.Cl.Cl`
24%

Provide one value: measured Population Fragmented Nuclei (%) of `CCCCCCNC(=O)Nc1ccc(S(=O)(=O)Nc2ccc(CCNC[C@H](O)COc3ccc(O)cc3)cc2)cc1`
13%

Provide one value: measured Population Fragmented Nuclei (%) of `CC(C)(C)c1ccc(CSc2cnn(C(C)(C)C)c(=O)c2Cl)cc1`
16%

Provide one value: measured Population Fragmented Nuclei (%) of `COc1cc(Nc2ncc3c(n2)-c2ccc(Cl)cc2C(c2c(F)cccc2OC)=NC3)ccc1C(=O)O`
16%

Provide one value: measured Population Fragmented Nuclei (%) of `CCCCC[C@H](O)/C=C/[C@H]1[C@H](O)CC(=O)[C@@H]1CCCCCCC(=O)O`
11%

Provide one value: measured Population Fragmented Nuclei (%) of `Nc1nc(-c2ccco2)c2cnn(Cc3ccccc3F)c2n1`
23%

Provide one value: measured Population Fragmented Nuclei (%) of `Cc1sc2c(c1C)C(c1ccc(Cl)cc1)=N[C@H](CC(=O)OC(C)(C)C)c1nnc(C)n1-2`
20%

Provide one value: measured Population Fragmented Nuclei (%) of `COCCn1c(C)c(C)s/c1=N\C(=O)C1C(C)(C)C1(C)C`
15%

Provide one value: measured Population Fragmented Nuclei (%) of `S=C(NCCCc1c[nH]cn1)NCCCN(Cc1ccc(Cl)c(Cl)c1)c1ccc(Br)cn1`
50%

Provide one value: measured Population Fragmented Nuclei (%) of `C=CCN1C[C@H](C(=O)N(CCCN(C)C)C(=O)NCC)C[C@@H]2c3cccc4[nH]cc(c34)C[C@H]21`
13%

Provide one value: measured Population Fragmented Nuclei (%) of `COc1ccc2[nH]c(I)c(CCNC(C)=O)c2c1`
29%

Provide one value: measured Population Fragmented Nuclei (%) of `Cc1cc(=O)n(C)c2cc(N3C(=O)CC[C@H](NS(=O)(=O)CC(C)C)[C@H]3c3ccc(Cl)cc3)ccc12`
21%

Provide one value: measured Population Fragmented Nuclei (%) of `O=C(Nc1cc(-c2ccccc2)nn1-c1ccccc1F)c1ccc([N+](=O)[O-])cc1`
10%

Provide one value: measured Population Fragmented Nuclei (%) of `Cc1c(Cc2ccc3ccccc3n2)c2cc(F)ccc2n1CC(=O)O`
13%

Provide one value: measured Population Fragmented Nuclei (%) of CCn1c(-c2nc3cc(C(=O)N4CCCC(N)C4)ccc3n2C)cc2ccccc21.Cl (stereo not given)
18%

Provide one value: measured Population Fragmented Nuclei (%) of Cc1ccc(OCC(O)C(C)NC(C)C)c2c1CCC2.Cl (stereo not given)
15%

Provide one value: measured Population Fragmented Nuclei (%) of COCCCN1CCC(NC(=O)c2cc(Cl)c(N)c3c2OCC3)CC1 [PRUCALOPRIDE]
11%

Provide one value: measured Population Fragmented Nuclei (%) of `CN1CCC(C(=O)c2cccc(NC(=O)c3c(F)cc(F)cc3F)n2)CC1`
15%

Provide one value: measured Population Fragmented Nuclei (%) of CN1CCN2c3ccccc3Cc3ccccc3C2C1.Cl (stereo not given) [MIANSERIN HYDROCHLORIDE]
15%

Provide one value: measured Population Fragmented Nuclei (%) of `C[C@H](NC(=O)CNC(=O)c1cccc(Cl)c1)c1ccccc1`
12%

Provide one value: measured Population Fragmented Nuclei (%) of `Cc1cc(O)c(-c2ccc([C@@H](C)CN(C)C)cc2)c2c1[nH]c(=O)c1sccc12`
54%

Provide one value: measured Population Fragmented Nuclei (%) of O=C(NCCNCC(O)COc1ccc(O)cc1)N1CCOCC1.O=C(NCCNCC(O)COc1ccc(O)cc1)N1CCOCC1.O=C(O)/C=C/C(=O)O (stereo not given) [XAMOTEROL FUMARATE]
17%

Provide one value: measured Population Fragmented Nuclei (%) of `CC(C)C[C@H](CO)Nc1nc(S[C@@H](C)c2ccccc2)nc2nc(N)sc12`
12%

Provide one value: measured Population Fragmented Nuclei (%) of `CC(C)(O)C(=O)N1CCN(c2ccc(C(F)(F)F)c(C3=C(c4c[nH]c5ccccc45)C(=O)NC3=O)c2)CC1`
31%

Provide one value: measured Population Fragmented Nuclei (%) of `CN1CCN(c2ccc(Nc3c4ccccc4nc4ccccc34)cc2)CC1.Cl.Cl.O`
76%

Provide one value: measured Population Fragmented Nuclei (%) of `Cc1cc(NC(=O)NCCN2CCC(O)(Cc3ccccc3)CC2)c2ccccc2n1`
16%

Provide one value: measured Population Fragmented Nuclei (%) of O=C(O)CCC/C=C\CC1C(O)CC(O)C1/C=C/C(O)COc1cccc(Cl)c1 (stereo not given)
12%

Provide one value: measured Population Fragmented Nuclei (%) of `Cn1cc(C(=O)OCC2CCN(CCNS(C)(=O)=O)CC2)c2ccccc21`
9%

Provide one value: measured Population Fragmented Nuclei (%) of `C[C@@H]1CC(=O)Nc2cccc(-c3ccc4c(c3)c(-c3cnn(C)c3)nn4C)c2N1`
23%

Provide one value: measured Population Fragmented Nuclei (%) of `N[C@](CC1c2ccccc2Oc2ccccc21)(C(=O)O)[C@H]1C[C@@H]1C(=O)O`
12%
